These data points were gathered from patent US20090214427A1.

# SYSTEM: hK2 (Homo sapiens, UniProt P20151)
# Construct: made in house
# Sequence (P20151 25-261): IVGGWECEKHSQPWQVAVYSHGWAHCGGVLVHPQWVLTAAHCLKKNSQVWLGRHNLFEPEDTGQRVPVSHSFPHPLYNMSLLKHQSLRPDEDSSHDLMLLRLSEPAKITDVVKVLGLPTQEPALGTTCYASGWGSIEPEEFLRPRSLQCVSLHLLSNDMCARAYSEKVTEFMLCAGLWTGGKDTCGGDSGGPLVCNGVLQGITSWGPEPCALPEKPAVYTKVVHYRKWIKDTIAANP
# TEST_PROTOCOL: Effect of the peptides on the enzyme activity of hK2 (chromogenic substrate S-2302)
# Type: biochemical
# EXPERIMENTAL_CONTEXT: enzymatic activity of hK2, chromogenic substrate, 405 nm
Lab note: compare inhibition (percent inhibition of hK2) against 80%. Equal or greater, write fulfilled. Smaller, write not fulfilled.

SUBSTANCE | SYSTEM | ASSIGNED_CATEGORY
15 (GPARRPFPVTAG) [compound 15] | hK2 (Homo sapiens, UniProt P20151) | not fulfilled
57 (SRFKVWWAAG) [compound 57] | hK2 (Homo sapiens, UniProt P20151) | not fulfilled
31 (GPARRPFPVTAG) [compound 31] | hK2 (Homo sapiens, UniProt P20151) | not fulfilled
64 (SRFKVWWAAG) [compound 64] | hK2 (Homo sapiens, UniProt P20151) | fulfilled

====

List of inhibition (percent inhibition of hK2) values.
# SYSTEM: hK2 (Homo sapiens)
# Construct: made in house
# TEST_PROTOCOL: Effect of the peptides on the enzyme activity of hK2 (chromogenic substrate S-2302)
# Type: biochemical
# EXPERIMENTAL_CONTEXT: enzymatic activity of hK2, chromogenic substrate, 405 nm
# Experimental: “Inhibition”, as used in the present context, stands for an inhibitory action on the proteolytic activity of hK2. The effect of the peptides on the enzyme activity of hK2 was studied by using the chromogenic substrate S-2302 (H-D-Pro-Phe-Arg-pNA). […] After addition of the substrate to a final concentration of 0.2 mM the absorbance was monitored at 405 nm at 5-10 min intervals for 1 h on a Victor 1420 Multilabel fluorometer (PerkinElmer-Wallac, Turku, Finland)
PROPERTY_NAME: inhibition (percent inhibition of hK2)

SUBSTANCE | RESULT
55 (SRFKVWWAAG) [compound 55] | 79%
63 (SRFKVWWAAG) [compound 63] | 78%
69 (SRFKVWWG) [compound 69] | 79%
73 (SRFKVWWG) [compound 73] | 82%
